These measurements were taken from patent US5654309A.

Target protein (sequence): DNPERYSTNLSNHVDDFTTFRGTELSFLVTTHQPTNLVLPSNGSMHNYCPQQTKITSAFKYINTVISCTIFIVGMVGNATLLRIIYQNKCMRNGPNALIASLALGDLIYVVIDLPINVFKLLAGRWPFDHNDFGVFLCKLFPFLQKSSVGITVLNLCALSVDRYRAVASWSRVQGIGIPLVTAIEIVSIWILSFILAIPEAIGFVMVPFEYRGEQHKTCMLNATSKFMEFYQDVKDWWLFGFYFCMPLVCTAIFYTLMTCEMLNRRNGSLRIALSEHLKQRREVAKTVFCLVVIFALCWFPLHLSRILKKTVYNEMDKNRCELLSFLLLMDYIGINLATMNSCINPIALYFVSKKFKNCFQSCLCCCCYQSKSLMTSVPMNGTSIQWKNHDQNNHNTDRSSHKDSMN
Listed here are compounds together with their documented log10 of IC50.
quantity: log10 of IC50 (log10 of the value in nM)

smiles-notation | measured-value
CCOC(=O)c1c(C)nc2c(c1-c1ccc(OC)cc1)c(=O)n(CC(=O)O)c(=O)n2Cc1ccccc1OC | 4.34
CCOC(=O)Cn1c(=O)c2c(-c3cc(=O)c4ccccc4[nH]3)c(C(=O)O)c(C(C)C)nc2n(Cc2ccccc2OC)c1=O | 1.85
CCOC(=O)Cn1c(=O)c2c(-c3cc(=O)c4ccccc4[nH]3)c(C(=O)O)c(C(C)C)nc2n(Cc2ccccc2SC)c1=O | 2.08
COc1ccccc1Cn1c(=O)n(CC(=O)O)c(=O)c2c(-c3ccc4ccccc4n3)c(C(=O)OCCC#N)c(C(C)C)nc21 | 2.76
COc1ccccc1Cn1c(=O)n(CC(=O)O)c(=O)c2c(-c3ccc4ccccc4n3)c(C(=O)OCC(C)C)c(C(C)C)nc21 | 3.65
COc1ccccc1Cn1c(=O)n(CC(=O)O)c(=O)c2c(-c3ccc4ccccc4n3)c(C(=O)O)c(C(C)C)nc21 | 3.57
CCOC(=O)c1c(C(C)C)nc2c(c1-c1ccc(C)cc1)c(=O)n(CC(=O)O)c(=O)n2Cc1ccccc1OC | 4.04
CCOC(=O)c1c(C(C)C)nc2c(c1-c1cc(=O)c3ccccc3[nH]1)c(=O)n(CC(=O)O)c(=O)n2Cc1ccccc1OC | 2.96
CCOC(=O)c1c(C(C)C)nc2c(c1-c1ccc3ccccc3n1)c(=O)n(CC(=O)O)c(=O)n2Cc1ccccc1OC | 3.04

----------
# study-target: Endothelin-B Receptor (bovine) (Bos taurus, UniProt P28088)
# Sequence (P28088 27-441): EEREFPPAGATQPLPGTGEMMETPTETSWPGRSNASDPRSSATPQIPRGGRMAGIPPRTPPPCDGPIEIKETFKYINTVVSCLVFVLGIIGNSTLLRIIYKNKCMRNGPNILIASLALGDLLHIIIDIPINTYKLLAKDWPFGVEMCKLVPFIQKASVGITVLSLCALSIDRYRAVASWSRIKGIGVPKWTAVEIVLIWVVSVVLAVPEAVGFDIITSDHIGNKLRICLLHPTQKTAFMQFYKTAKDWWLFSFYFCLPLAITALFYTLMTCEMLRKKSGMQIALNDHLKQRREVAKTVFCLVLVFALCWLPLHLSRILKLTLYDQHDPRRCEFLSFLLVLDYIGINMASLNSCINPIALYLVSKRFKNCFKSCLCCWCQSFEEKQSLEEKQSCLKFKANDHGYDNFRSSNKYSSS
pIC50: −log10 of the molar value.

smiles-notation | pIC50
CCOC(=O)c1c(C(C)C)nc2c(c1-c1ccc(C)cc1)c(=O)n(CC(=O)O)c(=O)n2Cc1ccccc1OC | 4.19

----------
Target chain: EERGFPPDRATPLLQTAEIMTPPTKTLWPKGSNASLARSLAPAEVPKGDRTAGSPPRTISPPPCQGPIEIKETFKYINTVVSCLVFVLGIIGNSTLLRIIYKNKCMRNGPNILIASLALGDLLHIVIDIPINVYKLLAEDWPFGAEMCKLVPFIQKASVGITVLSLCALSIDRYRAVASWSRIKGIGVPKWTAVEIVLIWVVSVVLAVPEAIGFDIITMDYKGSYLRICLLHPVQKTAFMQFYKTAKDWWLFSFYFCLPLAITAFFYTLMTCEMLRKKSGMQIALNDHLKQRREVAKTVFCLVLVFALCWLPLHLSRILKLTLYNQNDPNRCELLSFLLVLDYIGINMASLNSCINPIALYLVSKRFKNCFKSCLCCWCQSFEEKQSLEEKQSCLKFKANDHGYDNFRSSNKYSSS
The label met is reserved for IC50 strictly under 60 µM; not met covers values equal to or above it.

compound | classification
CCOC(=O)Cn1c(=O)c2c(-c3cc(=O)c4ccccc4[nH]3)c(C(=O)O)c(C(C)C)nc2n(Cc2ccc(OC)cc2OC)c1=O [Example 19 Compound No. 5] | met
COc1ccccc1Cn1c(=O)n(CC(=O)O)c(=O)c2c(-c3ccc4ccccc4n3)c(C(=O)O)c(C(C)C)nc21 [Example 14] | not met
COc1ccccc1Cn1c(=O)n(CC(=O)O)c(=O)c2c(-c3ccc4ccccc4n3)c(C(=O)OCCC#N)c(C(C)C)nc21 [Example 29] | not met
CCOC(=O)Cn1c(=O)c2c(-c3cc(=O)c4ccccc4[nH]3)c(C(=O)O)c(C(C)C)nc2n(Cc2ccccc2OC)c1=O [Example 19 Compound No. 2] | not met
COc1ccccc1Cn1c(=O)n(CC(=O)O)c(=O)c2c(-c3cc(=O)c4ccccc4[nH]3)c(C(=O)O)c(C(C)C)nc21 [Example 20] | met
COc1ccccc1Cn1c(=O)n(CC(=O)OC(C)(C)C)c(=O)c2c(-c3ccc4ccccc4n3)c(C(=O)O)c(C(C)C)nc21 [Example 16] | not met

----------
# study-target: Endothelin-B Receptor (human) (Homo sapiens)
# Sequence (P24530 27-442): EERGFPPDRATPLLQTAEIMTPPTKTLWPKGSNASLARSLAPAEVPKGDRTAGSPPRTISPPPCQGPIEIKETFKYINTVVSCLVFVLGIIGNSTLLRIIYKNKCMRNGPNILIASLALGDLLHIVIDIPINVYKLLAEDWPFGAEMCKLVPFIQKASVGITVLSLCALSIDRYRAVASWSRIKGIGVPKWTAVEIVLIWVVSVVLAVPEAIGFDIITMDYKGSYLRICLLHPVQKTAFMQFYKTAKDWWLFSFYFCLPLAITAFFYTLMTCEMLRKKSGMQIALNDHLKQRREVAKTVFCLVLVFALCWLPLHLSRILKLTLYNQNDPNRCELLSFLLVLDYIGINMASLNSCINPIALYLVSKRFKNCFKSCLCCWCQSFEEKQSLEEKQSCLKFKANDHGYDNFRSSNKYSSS
pIC50: −log10 of the molar value.

smiles-notation | pIC50
CCOC(=O)Cn1c(=O)c2c(-c3ccc4ccccc4n3)c(C(=O)O)c(C(C)C)nc2n(Cc2ccccc2OC)c1=O | 4.72
CCOC(=O)c1c(C(C)C)nc2c(c1-c1cc(=O)c3ccccc3[nH]1)c(=O)n(CC(=O)O)c(=O)n2Cc1ccccc1OC | 5.37
COc1ccccc1Cn1c(=O)n(CC(=O)OC(C)(C)C)c(=O)c2c(-c3cc(=O)c4ccccc4[nH]3)c(C(=O)O)c(C(C)C)nc21 | 4.16
